Measurement target: T1, human CLL1 on the surface of transfected cells (HEK293-CLL1; HEK-293T membrane proteome array) (human, UniProt Q5QGZ9 1-265)
T1 construct: whole, on cells; also called HEK293-CLL1 cells; CLL1 target antigen
T1 sequence (looked up): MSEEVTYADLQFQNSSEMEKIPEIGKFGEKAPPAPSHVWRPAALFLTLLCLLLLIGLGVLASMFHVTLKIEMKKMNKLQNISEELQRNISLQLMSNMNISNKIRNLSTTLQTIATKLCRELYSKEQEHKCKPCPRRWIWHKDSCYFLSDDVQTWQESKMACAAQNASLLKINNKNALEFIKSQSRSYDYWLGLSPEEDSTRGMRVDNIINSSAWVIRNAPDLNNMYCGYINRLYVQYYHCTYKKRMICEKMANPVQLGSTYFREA
Method summary: flow cytometry on HEK293 cells overexpressing CLL1, FITC goat anti-human IgG-Fc secondary; controls on the sheet: Cells + Secondary Antibody 1029.8, Blank 1041.3
Text: In the present example, flow cytometry was used to detect the binding of antibodies ch23D7, ch27H4, and ch19C1 to CLL1 on HEK293 cells. The steps are as follows: […]
The entries below come with measured MFI at 0.1ug/ml values attached.

Example results:
chimeric antibody ch19C1 (antibody, V domains shown) VH: QVQLQQSGAELMKPGASVKISCKATGYTFSSYWIEWVKQRPGHGLEWIGEIFPGSGSIKYNEKFKGKATFTADTSSNTAYMQLSSLTSEDSAVHYCARGGTYNDYSLFDYWGQGTTLTVSS VL: QIVLTQSPAIMSASPGEKVTMTCSASSSVSYMYWYQQKPGSSPRLLIFDTSNLASGVPVRFSGSGSGTSYSLTISRMEAEDAATYYCQQWSSYPLTFGAGTKLELK : 35900
anti-human CLL-1 control antibody 1075.7 (antibody, it was captured by anti-human IgG sensors and detected with anti-human IgG-Fc, so a human Fc was present; also called ch1075.7) scFv: ENVLTQSPAIMSASPGEKVTMTCRASSNVISSYVHWYQQRSGASPKLWIYSTSNLASGVPARFSGSGSGTSYSLTISSVEAEDAATYYCQQYSGYPLTFGAGTKLELGGGGSGGGGSGGGGSDIQLQESGPGLVKPSQSLSLTCSVTGYSITSAYYWNWIRQFPGNKLEWMGYISYDGRNNYNPSLKNRISITRDTSKNQFFLKLNSVTTEDTATYYCAKEGDYDVGNYYAMDYWGQGTSVTVSS : 35600
chimeric antibody ch23D7 (antibody, V domains shown) VH: QVQLQQPGSDLVRPGASVKLSCKASGYTFTRYWMHWVKQRPGHGLEWIGYIYPGSGTSNYDEKFKSKATLTVDTSSSTAYMQLSSLTSEDSAVYYCTREARYTMDYWGQGTSVTVSS VL: QIVLTQSPAIMSASPGEKVTMTCSASSSVSYIYWYQQKPGSSPGLLIYDTSNLASGVPVRFSGSGSGTSYSLTISRMEAEDAATYYCQQWSSFPPTFGAGTKLELK : 34600

Attention now turns to another entry.
Quickly give me recorded MFI at 0.1ug/ml for chimeric antibody ch27H4 (antibody, V domains shown, also called parent antibody) VH: EVQLQQSGPELVKPGASVKISCKASGYSFTGYHMHWVKQSHVKSLEWIGRINPYNGAASHNQKFKDKATLTVDKSSSTAYMELHSLTSEDSAVYYCARGWDYDGGYYAMDYWGQGTSVTVSS VL: DIVMSQSPSSLAVSVGEKVTMSCKSSQSLLYSDNQKNYLAWYQQKPGQSPKLLIYWASTRESGVPDRFTGSGSGTDFTLTISSVKAEDLAVYYCQQYYTYPYTFGGGTKLEIK
25200

Value source: patent US20220396626A1
